These data points were gathered from patent US9822139B2.

- Tested on: hepatocellular carcinoma (HepG2)
- Protocol notes: MTT cytotoxicity assay, HepG2
- Format: cell-based, human
- Condition notes: 72 h
Parameter: pIC50
Give bare numbers, as −log10 of the molar value.

Previously resolved entries follow.
CCCCn1cc[n+](CCO)[c]1[Pt-2]12[c]3ccccc3-c3cccc([n+]31)-c1cc3ccccc3c[n+]12.F[P-](F)(F)(F)(F)F (stereo not drawn) [Complex 25]: 6.17
Cc1cc(C)c(-[n+]2ccn(CCCO)[c]2[Pt-2]23[c]4ccccc4-c4cccc([n+]42)-c2cccc[n+]23)c(C)c1.F[P-](F)(F)(F)(F)F (stereo not drawn) [Complex 23]: 6.11
CCn1cc[n+](CC)[c]1[Pt-2]12[c]3ccccc3-c3cccc([n+]31)-c1cccc[n+]12.F[P-](F)(F)(F)(F)F (stereo not drawn) [Complex 12]: 5.89

Batch: pIC50 for all items listed.
1. N.N.[Cl][Pt][Cl] [cisplatin, reference compound]
2. CC(C)c1cc(C(C)C)c(-n2cc[n+](-c3c(C(C)C)cc(C(C)C)cc3C(C)C)[c]2[Au-]23[c]4ccccc4-c4cccc([n+]42)-c2cccc[c]23)c(C(C)C)c1.O=S(=O)([O-])C(F)(F)F [Complex 4]
3. CCCC[n+]1ccn(Cn2cc[n+](CCCC)[c]2[Pt-2]23[c]4ccccc4-c4cccc([n+]42)-c2cccc[n+]23)[c]1[Pt-2]12[c]3ccccc3-c3cccc([n+]31)-c1cccc[n+]12.F[P-](F)(F)(F)(F)F.F[P-](F)(F)(F)(F)F (stereo not drawn) [Complex 15]

*A*
[4.84, 5.72, 5.03]

* * *

- Test system: hepatocellular carcinoma (HepG2)
- Protocol notes: MTT cytotoxicity assay, HepG2
- Type: cell-based, human
- Condition notes: 72 h
- Source text: Example 2 describes the in vitro cytotoxicity, which is indicative of the induction of cell death and/or inhibition of cellular proliferation of cancer cells, of the cyclometalated N-heterocyclic complexes on cervical epithelioid carcinoma, hepatocellular carcinoma, leukemia, nasopharyngeal carcinoma, breast carcinoma, melanoma, and lung carcinoma. […]
Mark fulfilled only for IC50 values smaller than 1000 nM; exact matches and larger values are not fulfilled.

Use these answered entries as a reference point.
CCCn1cc[n+](CCC)[c]1[Pt-2]12[c]3ccccc3-c3cccc([n+]31)-c1cc3ccccc3c[n+]12.F[P-](F)(F)(F)(F)F (centres unmarked): fulfilled
Cc1cc(C)c(-[n+]2ccn(CC(=O)c3ccccc3)[c]2[Au-]23[c]4ccccc4-c4cccc([n+]42)-c2cccc[c]23)c(C)c1.O=S(=O)([O-])C(F)(F)F: not fulfilled

*Q* Criterion: IC50 strictly below 1000 nM. Is it met by CCCC[n+]1ccn(CCCn2cc[n+](CCCC)[c]2[Pt-2]23[c]4ccccc4-c4cccc([n+]42)-c2cccc[n+]23)[c]1[Pt-2]12[c]3ccccc3-c3cccc([n+]31)-c1cccc[n+]12.F[P-](F)(F)(F)(F)F.F[P-](F)(F)(F)(F)F (centres unmarked) ?
*A* not fulfilled

*Q* Request: CCCn1cc[n+](CCC)[c]1[Pt-2]12[c]3ccccc3-c3cccc([n+]31)-c1cccc[n+]12.F[P-](F)(F)(F)(F)F (centres unmarked)
*A* not fulfilled

* * *

- System: lung fibroblast cells (CCD-19Lu)
- Protocol notes: MTT cytotoxicity to non-cancerous cells, CCD-19Lu
- Assay type: cell-based, human
- Condition notes: 72 h, non-cancerous lung fibroblast cells CCD-19Lu
Can you tell me IC50 for the items I'm about to list?
Answers are plain numbers, in µM.

Previously resolved entries follow.
COc1ccc(-c2cc3[n+]4c(c2)-c2cc5ccccc5c[c]2[Au-]4([c]2n(C)cc[n+]2C)[c]2cc4ccccc4cc2-3)cc1.O=S(=O)([O-])C(F)(F)F: 0.89
CCn1cc[n+](CC)[c]1[Pt-2]12[c]3ccccc3-c3cccc([n+]31)-c1cccc[n+]12.F[P-](F)(F)(F)(F)F (stereo not drawn): 2.1
CCCn1cc[n+](CCC)[c]1[Pt-2]12[c]3ccccc3-c3cccc([n+]31)-c1cccc[n+]12.F[P-](F)(F)(F)(F)F (stereo not drawn): 12

*Q* Find the measured IC50: item Cn1cc[n+](C)[c]1[Pt-2]12[c]3ccccc3-c3cccc([n+]31)-c1cccc[n+]12.F[P-](F)(F)(F)(F)F (stereo not drawn) , target or system lung fibroblast cells (CCD-19Lu).
*A* 5.7
